This section presents compounds with their documented IC50 values.
System: H358 cells (KRAS G12C)
Method description: Cell-based pERK HTRF assay in H358 cells (Biological Example 5)
Condition details: Homo sapiens, NCI-H358, H358 (KRAS G12C) cells

Look over these answered cases.
[[record]]
compound = "CCN(c1nc(OC[C@@]23CCCN2C[C@H](F)C3)nc2c(F)c(-c3ccc(F)c4sc(N)c(C#N)c34)c(C(F)(F)F)cc12)[C@H]1CC(=O)N2CCC[C@@H]12 (atropisomer, axis not shown; (aS))"
reported_result = "≤ 100 nM"

[[record]]
compound = "CCN(c1nc(OC[C@@]23CCCN2C[C@H](F)C3)nc2c(F)c(-c3ccc(F)c4sc(N)c(C#N)c34)c(C(F)(F)F)cc12)[C@H]1CCN(C(C)=O)C1"
reported_result = "≤ 100 nM"


Now, please, on to the next compound.
input: # input compound: CCN(c1nc(OC[C@@]23CCCN2C[C@H](F)C3)nc2c(F)c(-c3ccc(F)c4sc(N)c(C#N)c34)c(C(F)(F)F)cc12)[C@H]1C[C@H](C)N(C(C)=O)C1 ; wanted: its IC50
output: ≤ 100 nM

These entries and their values trace back to patent US20260042764A1.
